test: growth inhibition of DIPG cells – cell-based, MIPE4.0 library, CellTiter-Glo luminescence, qHTS (AID 1347066); settings: SU-DIPG-VI viability, CellTiter-Glo ATP luminescence;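 also: cells exposed to compound for 48 hours before readout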
Inconclusive results are not listed. Calls of active or inactive are those of the source. The limit is not given here; nearly all actives have AC50 up to about 30 µM.
Classes to choose from: active, inactive

[Q] Hello, I am checking results. What call was entered for `N#Cc1ccc(C(c2ccc(C#N)cc2)n2cncn2)cc1` ?
[A] inactive

[Q] Hello, I am checking results. What call was entered for `Cn1cnc2c1c(=O)[nH]c(=O)n2C` ?
[A] active

[Q] Hello, I am checking results. What call was entered for `Cc1cc2c(C(C)C)c(O)c(O)c(C=O)c2c(O)c1-c1c(C)cc2c(C(C)C)c(O)c(O)c(C=O)c2c1O` ?
[A] active

[Q] Hello, I am checking results. What call was entered for `NC(=O)OCC(COC(N)=O)c1ccccc1` ?
[A] inactive

[Q] Hello, I am checking results. What call was entered for Oc1ccc(C2CNCCc3c2cc(O)c(O)c3Cl)cc1 (stereo not given) ?
[A] inactive

[Q] Hello, I am checking results. What call was entered for `NC[C@H](O)c1ccc(O)c(O)c1` ?
[A] inactive

[Q] Hello, I am checking results. What call was entered for `Cc1cc(C(C)(C)C)c(O)c(C)c1CC1=NCCN1` ?
[A] inactive

[Q] Hello, I am checking results. What call was entered for `COc1cc(OC)c(C(=O)CCCN2CCCC2)c(OC)c1` ?
[A] inactive

[Q] Hello, I am checking results. What call was entered for `O=C1N(c2ccccc2)c2ccccc2C1(Cc1ccncc1)Cc1ccncc1` ?
[A] inactive

[Q] Hello, I am checking results. What call was entered for NCC1CCC(C(=O)O)CC1 (stereo not given) ?
[A] inactive

[Q] Hello, I am checking results. What call was entered for `CCOc1cc(CC(=O)N[C@@H](CC(C)C)c2ccccc2N2CCCCC2)ccc1C(=O)O` ?
[A] inactive

[Q] Hello, I am checking results. What call was entered for `O=C(c1ccc(F)cc1)C1CCN(CCn2c(=O)[nH]c3ccccc3c2=O)CC1` ?
[A] inactive

[Q] Hello, I am checking results. What call was entered for `CN1CCC(=C2c3ccccc3CCc3sccc32)CC1` ?
[A] inactive

[Q] Hello, I am checking results. What call was entered for `Nc1ncnc2c1ncn2[C@@H]1O[C@H](CO)[C@@H](O)[C@H]1O` ?
[A] inactive

[Q] Hello, I am checking results. What call was entered for `CNC[C@H](O)c1cccc(O)c1` ?
[A] inactive

[Q] Hello, I am checking results. What call was entered for `CC(C)c1nc(CN(C)C(=O)N[C@H](C(=O)N[C@@H](Cc2ccccc2)C[C@H](O)[C@H](Cc2ccccc2)NC(=O)OCc2cncs2)C(C)C)cs1` ?
[A] inactive

[Q] Hello, I am checking results. What call was entered for `Oc1ccc(OCc2ccccc2)cc1` ?
[A] inactive

[Q] Hello, I am checking results. What call was entered for `CC1=CC(=O)c2ccccc2C1=O` ?
[A] active

[Q] Hello, I am checking results. What call was entered for `CN(C)c1ccc(C(=C2C=CC(=[N+](C)C)C=C2)c2ccc(N(C)C)cc2)cc1` ?
[A] active

[Q] Hello, I am checking results. What call was entered for `Cc1cc(C(C)(C)C)cc(C)c1CC1=NCCN1` ?
[A] inactive

[Q] Hello, I am checking results. What call was entered for `CN(C)c1ccc2nc3ccc(=[N+](C)C)cc-3sc2c1` ?
[A] active

[Q] Hello, I am checking results. What call was entered for `CCOC(=O)C(C)(C)Oc1ccc(Cl)cc1` ?
[A] inactive

[Q] Hello, I am checking results. What call was entered for `O=C(Nc1ccc([N+](=O)[O-])cc1Cl)c1cc(Cl)ccc1O` ?
[A] active

[Q] Hello, I am checking results. What call was entered for `CC1=NN(c2ccccc2)C(=O)C1` ?
[A] inactive

[Q] Hello, I am checking results. What call was entered for `NC(=O)c1ncn([C@@H]2O[C@H](CO)[C@@H](O)[C@H]2O)c1O` ?
[A] inactive

[Q] Hello, I am checking results. What call was entered for `OC[C@H]1O[C@@H](O[C@@H]2[C@@H](CO)O[C@](O)(CO)[C@H]2O)[C@H](O)[C@@H](O)[C@H]1O` ?
[A] inactive

[Q] Hello, I am checking results. What call was entered for `Cc1oncc1C(=O)Nc1ccc(C(F)(F)F)cc1` ?
[A] inactive

[Q] Hello, I am checking results. What call was entered for `OC[C@H]1O[C@@H](Oc2ccc(O)cc2)[C@H](O)[C@@H](O)[C@@H]1O` ?
[A] inactive

[Q] Hello, I am checking results. What call was entered for `Nc1nc2c(ncn2COC(CO)CO)c(=O)[nH]1` ?
[A] inactive

[Q] Hello, I am checking results. What call was entered for C[N+]1(C)[C@@H]2CC(OC(=O)[C@H](CO)c3ccccc3)C[C@H]1[C@@H]1O[C@@H]12 (stereo not given in full) ?
[A] inactive

[Q] Hello, I am checking results. What call was entered for Cc1ccccc1N1C(=O)c2cc(S(N)(=O)=O)c(Cl)cc2NC1C (stereo not given) ?
[A] inactive

[Q] Hello, I am checking results. What call was entered for `O=c1oc2cc(O)ccc2s1` ?
[A] inactive

[Q] Hello, I am checking results. What call was entered for `Nc1[nH]c(=O)ncc1F` ?
[A] inactive

[Q] Hello, I am checking results. What call was entered for `NNc1nncc2ccccc12` ?
[A] inactive

[Q] Hello, I am checking results. What call was entered for `Cc1ccnc2c1NC(=O)c1cccnc1N2C1CC1` ?
[A] inactive

---

Field: viability decrease (inhibition). Provide a value for each of the compounds that follow.
assay: reduced SW480 viability measured with CellTiter-Glo, NPC library, primary (AID 1117343); conditions: CellTiter-Glo luminescence; at 20 µM (top of the series)
Starred links: 1 amine or outer side, 2 acyl side, 3 side chain; linkers in the order of their positions; H or OH if unused. Positions of bridges follow the written chain, without caps; N, C: chain ends. Non-standard residues stand in square brackets, D forms with d. Residues, ends and D or L forms follow the SMILES beside them. Chains are numbered I, II in the order given. Actinocin(9to1) = Cc1c2oc3c(C)ccc(C(=O)[*:1])c3nc-2c(C(=O)[*:2])c(N)c1=O; NMeV = CN[C@H](C(=O)O)C(C)C; Sar = CNCC(=O)O
# output: bare number, implied unit %

[Q] Record request: viability decrease (inhibition) value, item `O=c1oc2cc(O)ccc2s1`
[A] 3.7

[Q] Record request: viability decrease (inhibition) value, item `O=C(O)c1ccccc1Nc1cccc(C(F)(F)F)c1`
[A] 70.1

[Q] Record request: viability decrease (inhibition) value, item `CC(=O)Oc1ccccc1C(=O)Nc1ncc([N+](=O)[O-])s1`
[A] 120

[Q] Record request: viability decrease (inhibition) value, item CC1CCc2cc(F)cc3c(=O)c(C(=O)O)cn1c23 (stereo not drawn)
[A] 51.1

[Q] Record request: viability decrease (inhibition) value, item `Clc1ccc2c(c1)CCc1cccnc1C2=C1CCNCC1`
[A] 97.8

[Q] Record request: viability decrease (inhibition) value, item `CN1CCC(=C2c3ccccc3CC(=O)c3sccc32)CC1`
[A] 38.1

[Q] Record request: viability decrease (inhibition) value, item COc1cc2nc(N3CCN(C(=O)C4CCCO4)CC3)nc(N)c2cc1OC (stereo not drawn)
[A] -2.8

[Q] Record request: viability decrease (inhibition) value, item `O=P(O)(O)C(O)(Cc1cccnc1)P(=O)(O)O`
[A] -18.5

[Q] Record request: viability decrease (inhibition) value, item `CCN1CCC[C@H]1CNC(=O)c1cc(S(N)(=O)=O)ccc1OC`
[A] -4.8

[Q] Record request: viability decrease (inhibition) value, item `Nc1ccc(C(=O)NCC(=O)O)cc1`
[A] 36.1

[Q] Record request: viability decrease (inhibition) value, item `CCOc1ccc2nc3cc(N)ccc3c(N)c2c1`
[A] 121

[Q] Record request: viability decrease (inhibition) value, item `CN(Cc1cnc2nc(N)nc(N)c2n1)c1ccc(C(=O)N[C@@H](CCC(=O)O)C(=O)O)cc1`
[A] 78.8

[Q] Record request: viability decrease (inhibition) value, item `CN1CCC(=C2c3ccccc3Sc3ccccc32)CC1`
[A] 80.2

[Q] Record request: viability decrease (inhibition) value, item `CCCCC(=O)O[C@]1(C(=O)CO)[C@@H](C)C[C@H]2[C@@H]3CCC4=CC(=O)C=C[C@]4(C)[C@@]3(F)[C@@H](O)C[C@@]21C`
[A] -0.4

[Q] Record request: viability decrease (inhibition) value, item O=C(O)CCCCC1CCSS1 (stereo not drawn)
[A] 29.9

[Q] Record request: viability decrease (inhibition) value, item `CCN(CCCc1ccccc1)CCCc1ccccc1`
[A] 44

[Q] Record request: viability decrease (inhibition) value, item `Oc1c(I)cc(I)c2cccnc12`
[A] 147

[Q] Record request: viability decrease (inhibition) value, item `NC(N)=NCCN1CCCCCCC1`
[A] -11.2

[Q] Record request: viability decrease (inhibition) value, item `CC(=O)[C@@]1(O)CC[C@H]2[C@@H]3C[C@H](C)C4=CC(=O)C=C[C@]4(C)[C@@]3(F)[C@@H](O)C[C@@]21C`
[A] -18.3

[Q] Record request: viability decrease (inhibition) value, item CC(C)NCC(O)COc1ccc(CCOCC2CC2)cc1 (stereo not drawn)
[A] 10.9

[Q] Record request: viability decrease (inhibition) value, item `CCN(CC)Cc1cc(Nc2ccnc3cc(Cl)ccc23)ccc1O`
[A] 87.3

[Q] Record request: viability decrease (inhibition) value, item `COc1cc(C(=O)OCCCN2CCCN(CCCOC(=O)c3cc(OC)c(OC)c(OC)c3)CC2)cc(OC)c1OC`
[A] 92.3

[Q] Record request: viability decrease (inhibition) value, item `N[C@@H](CCC(=O)N[C@@H](CS)C(=O)NCC(=O)O)C(=O)O`
[A] 8.1

[Q] Record request: viability decrease (inhibition) value, item Cc1ccc(C(=O)C(C)CN2CCCCC2)cc1 (stereo not drawn)
[A] 2.3

[Q] Record request: viability decrease (inhibition) value, item `CCCN[C@H]1CCc2nc(N)sc2C1`
[A] 51.7

[Q] Record request: viability decrease (inhibition) value, item `COc1ccc(C(=O)c2ccccc2O)c(O)c1`
[A] 1.6

[Q] Record request: viability decrease (inhibition) value, item `CC[N+](C)(C)Cc1ccccc1Br`
[A] -1.6

[Q] Record request: viability decrease (inhibition) value, item `CN(C)c1ccc2nc3ccc(=[N+](C)C)cc-3sc2c1`
[A] 65.3

[Q] Record request: viability decrease (inhibition) value, item `O=C(NCCN1CCOCC1)c1ccc(Cl)cc1`
[A] 35.1

[Q] Record request: viability decrease (inhibition) value, item Nc1nc2c(c(=O)[nH]1)N(C=O)C(CNc1ccc(C(=O)N[C@@H](CCC(=O)O)C(=O)O)cc1)CN2 (stereo partly drawn)
[A] 24.4

[Q] Record request: viability decrease (inhibition) value, item `Cc1cc(O)cc(C)c1Cl`
[A] 28.5

[Q] Record request: viability decrease (inhibition) value, item Cc1c2oc3c(C)ccc(C(=O)N[C@@H]4C(=O)N[C@H](C(C)C)C(=O)N5CCC[C@H]5C(=O)N(C)CC(=O)N(C)[C@@H](C(C)C)C(=O)O[C@@H]4C)c3nc-2c(C(=O)N[C@@H]2C(=O)N[C@H](C(C)C)C(=O)N3CCC[C@H]3C(=O)N(C)CC(=O)N(C)[C@@H](C(C)C)C(=O)O[C@@H]2C)c(N)c1=O (I: T[dV]P[Sar][NMeV] / II: T[dV]P[Sar][NMeV]; ester I:1-I:C, II:1-II:C; linker I:N-II:N via Actinocin(9to1))
[A] 70.6

[Q] Record request: viability decrease (inhibition) value, item CCN(CC)CCOC(=O)C(c1ccccc1)C1CCCCC1 (stereo not drawn)
[A] 36.2

[Q] Record request: viability decrease (inhibition) value, item CC(C)NCC(O)c1ccc2ccccc2c1 (stereo not drawn)
[A] 20.9

[Q] Record request: viability decrease (inhibition) value, item `CCOc1ccc(Cc2nccc3cc(OCC)c(OCC)cc23)cc1OCC`
[A] 97.9

[Q] Record request: viability decrease (inhibition) value, item CC(Oc1c(Cl)cccc1Cl)C1=NCCN1 (stereo not drawn)
[A] 12.5

[Q] Record request: viability decrease (inhibition) value, item `CCc1nn(CCCN2CCN(c3cccc(Cl)c3)CC2)c(=O)n1CCOc1ccccc1`
[A] 91.5

[Q] Record request: viability decrease (inhibition) value, item `CN(C)CCC=C1c2ccccc2C=Cc2ccccc21`
[A] 111
